Entry source: patent US20140120095A1

- Target under test: T1, human DLL4 overexpressed on cells (human, UniProt Q9NR61 27-685)
- T1 construct: full length human DLL4 on CHO or HEK293 cells; also called CHO-hDLL4; CHO-hDII4
- Test method notes: competitive FMAT, hNotch1-Fc on CHO-hDLL4
The following binders are shown together with reported pIC50 values.
Just the number, please; pIC50 means minus log10 of the concentration in mol/L.

Worked examples follow.
Binder	Result type	Reported
DLLBII62C11 (VHH) VHH: EVQLMESGGGLVQPGGSLRLSCVAAGFTFSNYYMSWVRQAPGKGLEWVSVISPDGSNTYYADTVKGRFTISRGNAKNTLFLQMTGLKSEDAAVYYCARGSGSWGVHGQGTQVTVSS	pIC50	6.76
DLLBII57C11 (VHH) VHH: EVQLVESGGGLVQPGGSLRLSCTASGFTFDDYAIGWFRQAPGKEPEGISCISSSGSITYDADSVKGRFTISRDNAKNTVYLQMNSLKPEDTAVYYCATPGIAACRGIHYWGQGTQVTVSS	pIC50	7.27
DLLBII19F04 (VHH) VHH: EVQLVESGGGLVQAEGSLRLSCAASGSTFSTYAMAWYRQAPGKQRELVAGISFDGSTHYAESVKGRFTISRDDAKNTVSLQMNSLKPEDAAVYYCYSVHPSTGFGSWGQGTQVTVSS	pIC50	7.48

Incoming: Would you kindly share the measured pIC50 for DLLBII96C03 (VHH, also called 96C3) VHH: EVQLVESGGGLVQPGGSLRLSCAASGFTFGNYDMSWVRQAPGKGPEWVSAINSGGGDTYYADSVKGRFTISRDNAKNTLYLQMNSLKPEDTAVYYCATPRGWGPTGPHEYGYWGQGTQVTVSS ?
Outgoing: 6.79

Incoming: Would you kindly share the measured pIC50 for DLLBII55D12 (VHH) VHH: EVQLVESGGGLVQPGGSLRLSCAASGFTFDDYAIGWFRQAPGKEPEGISCISSSGGITYYADSVKGRFTISRDNAKNTVYLQMNSLKPEDTAVYYCATPGIAACRGIHYTGQGTQVTVSS ?
Outgoing: 7.41

Incoming: Would you kindly share the measured pIC50 for DLLBII115A05 (VHH, also called 115A5; DLLBII115A5) VHH: EVQLVESGGGLVQPGGSLRLSCAASGFTFGSYDMSWVRRSPGKGPEWVSSINSGGGSTYYADFVKGRFTISRDNAKNTLYLQMNSLKPEDTAVYYCAADRYIRARQGDYWGAYEYDYWGQGTQVTVSS ?
Outgoing: 7.66

Incoming: Would you kindly share the measured pIC50 for DLLBII56C04 (VHH) VHH: EVQLVESGGGLVQPGGSLRLSCTASGFTFDVYAIGWFRQAPGKEPEGISCISSSGSITYYADSVKGRFTTSRDSAKNTVYLQMNSLKPEDTAVYYCATPGIAACRGIHYWGQGTQVTVSS ?
Outgoing: 7.54

Incoming: Would you kindly share the measured pIC50 for DLLBII101G08 (VHH, also called 101G8; DLLBII101G8) VHH: EVQLVESGGGLVQAGGSLRLSCAASGRTFSSYAMAWFRQAPGKEREFVAAIRWSGGTAYYADSVQGRFTISRDNAKNTVYLQMNSLKPEDTAVYYCANRAADTRLGPYEYDYWGQGTQVTVSS ?
Outgoing: 7.61

Incoming: Would you kindly share the measured pIC50 for DLLBII56H08 (VHH) VHH: EVQLVESGGGLVQPGGSLRLSCAASGFTFDDYAIGWFRQAPGKEPEEISCISSSGGITYYADSVKGRFTISRDNAKNTVYLQMNSLKPEDTAVYYCATPGIAACRGIHYTGQGTQVTVSS ?
Outgoing: 7.66
